// data source = patent US10188634B2

compounds and their reported inhibition at 10 µM
- Tested on: SW480 colon cancer cells
- METHOD_SUMMARY: Cell viability assay (CellTiter-Blue) in SW480 colon cancer cells
- Assay type: cell-based
- TEST_PARAMETERS: Homo sapiens, 96 h, 10 μM, four days, CellTiter-Blue, read-out: percent inhibition at 10 μM (given for EC50 of >10 μM)
Answer in %, number only, no unit symbol.

COMPOUND	ENDPOINT_RESULT
O=C(Nc1cncc(-c2ccc3[nH]nc(-c4nc5c(-c6ccncc6)cncc5[nH]4)c3n2)c1)C1CCCCC1 [Compound 135]	1.4
CCC(=O)Nc1cncc(-c2ccc3[nH]nc(-c4nc5c(-c6cccc(F)c6)cncc5[nH]4)c3n2)c1 [Compound 1]	0
c1csc(-c2cncc3[nH]c(-c4n[nH]c5ccc(-c6ccncc6)nc45)nc23)c1 [Compound 326]	0

Measured inhibition at 10 µM for this entry Fc1ccc(-c2cncc3[nH]c(-c4n[nH]c5ccc(-c6cncnc6)nc45)nc23)cc1 [Compound 55] on SW480 colon cancer cells: 0

Measured inhibition at 10 µM for this entry CS(=O)(=O)NCc1cc(F)cc(-c2cncc3[nH]c(-c4n[nH]c5ccc(-c6cncnc6)nc45)nc23)c1 [Compound 475] on SW480 colon cancer cells: 0.9

* * *

- System: SW480 colon cancer cells
- METHOD_SUMMARY: Cell viability assay (CellTiter-Blue) in SW480 colon cancer cells
- Format: cell-based
- TEST_PARAMETERS: Homo sapiens, 96 h, 10 μM, four days, CellTiter-Blue, read-out: percent inhibition at 10 μM (given for EC50 of >10 μM)
The class of a record is decided solely by its measured inhibition at 10 µM; consult low end = under 3%, middle = from 3% up to 7%, high end = 7% and over

Example entries and their recorded answers appear below.
COMPOUND_STRING	SYSTEM_TESTED	ANSWER_LABEL
Cc1cn(-c2cncc3[nH]c(-c4n[nH]c5ccc(-c6cncc(CN7CCCC7)c6)nc45)nc23)cn1	SW480 colon cancer cells	middle
Cn1cc(-c2ccc3[nH]nc(-c4nc5c(N6CCCCC6)cncc5[nH]4)c3n2)c(CO)n1	SW480 colon cancer cells	high end
O=C(CC1CCNCC1)Nc1cncc(-c2ccc3[nH]nc(-c4nc5c(-c6ccccn6)cncc5[nH]4)c3n2)c1	SW480 colon cancer cells	middle
CCCCC(=O)Nc1cncc(-c2ccc3[nH]nc(-c4nc5c(-c6ccoc6)cncc5[nH]4)c3n2)c1	SW480 colon cancer cells	middle
c1ccc(CNCc2cncc(-c3ccc4[nH]nc(-c5nc6c(-c7cccnc7)cncc6[nH]5)c4n3)c2)cc1	SW480 colon cancer cells	low end

Which bin should I file CC(C)C(=O)Nc1cncc(-c2ccc3[nH]nc(-c4nc5c(-c6cccnc6)cncc5[nH]4)c3n2)c1 under?
middle

Which bin should I file Cc1cn(-c2cncc3[nH]c(-c4n[nH]c5ccc(C6=CCNCC6)nc45)nc23)cn1 under?
high end

Which bin should I file Cc1cn(-c2cncc3[nH]c(-c4n[nH]c5ccc(-c6cncc(NC(=O)C7CCC7)c6)nc45)nc23)cn1 under?
low end

Which bin should I file Cn1cc(-c2ccc3[nH]nc(-c4nc5c(-c6cc(F)cc(CNS(C)(=O)=O)c6)cncc5[nH]4)c3n2)cn1 under?
low end

Which bin should I file Fc1cccc(-c2cncc3[nH]c(-c4n[nH]c5ccc(-c6ccncc6)nc45)nc23)c1 under?
middle

Which bin should I file Oc1cncc(-c2ccc3[nH]nc(-c4nc5c(-c6cccnc6)cncc5[nH]4)c3n2)c1 under?
high end

Which bin should I file Cc1cn(-c2cncc3[nH]c(-c4n[nH]c5ccc(-c6cncc(NC(=O)C(C)(C)C)c6)nc45)nc23)cn1 under?
middle

Which bin should I file CN1CCN(c2cncc3[nH]c(-c4n[nH]c5ccc(-c6cncc(NC(=O)C7CCCC7)c6)nc45)nc23)CC1 under?
low end

Which bin should I file CCCCC(=O)Nc1cncc(-c2ccc3[nH]nc(-c4nc5c(-c6ccccn6)cncc5[nH]4)c3n2)c1 under?
high end

Which bin should I file O=C(Nc1cncc(-c2ccc3[nH]nc(-c4nc5c(-c6ccsc6)cncc5[nH]4)c3n2)c1)c1ccccc1 under?
low end

Which bin should I file Cn1cc(-c2ccc3[nH]nc(-c4nc5c(-c6ccc7c(c6)OCO7)cncc5[nH]4)c3n2)c(CO)n1 under?
middle

Which bin should I file C1=C(c2ccc3[nH]nc(-c4nc5c(-c6ccc7c(c6)OCO7)cncc5[nH]4)c3n2)CCNC1 under?
low end

Which bin should I file CC(C)(C)CC(=O)Nc1cncc(-c2ccc3[nH]nc(-c4nc5c(-c6ccccc6F)cncc5[nH]4)c3n2)c1 under?
high end

Which bin should I file CN(C)c1cncc(-c2ccc3[nH]nc(-c4nc5c(-c6cccs6)cncc5[nH]4)c3n2)c1 under?
high end

Which bin should I file CCC(=O)Nc1cncc(-c2ccc3[nH]nc(-c4nc5c(-c6cccs6)cncc5[nH]4)c3n2)c1 under?
low end
